What growth was measured for each of the following?
Test system: SK-OV-3 ovarian
Experiment: NCI-60 one-dose screen, 48 h (100 = growth as untreated, 0 = no growth, -100 = all killed)
Details: 10 µM unless noted
Compounds without any hit were thinned out: in the full panel of roughly 83,000, 20% have a hit.
Express your answer in %, writing the number without its unit.

Problem: Return value of growth for input C=Cc1nn2c(CCC(=O)c3nc4ccccc4[nH]3)nnc2s1 , no commentary.
Solution: 106

Problem: Please give measured growth of the following entry: O=C(c1ccccc1)c1ccccc1Cl
Solution: 108

Problem: Specify growth for O=C(c1nn(-c2ccc(Cl)cc2)cc1O)n1nc(C(F)(F)F)cc1-c1ccccc1 and stop.
Solution: 23.2

Problem: Input CCC(c1ccccc1)c1noc(CCN(CC)CC)n1 (stereo unspecified) , output reported growth.
Solution: 97

Problem: Name the recorded growth of the item Cc1ccccc1-c1cc(Cc2ccccc2O)c(=O)[nH]n1 in your answer.
Solution: 253

Problem: Tell me growth reported for C/C(=C\CCc1ccsc1)CC/C=C(\C)CCCN1CCN(CCO)CC1
Solution: 77.4

Problem: Give a short answer stating reported growth for c1cncc(CNc2ccccc2-c2nnc(Nc3ccc4c(c3)OCO4)o2)c1 .
Solution: -3.15

Problem: Please give measured growth of the following entry: CN(C(=O)c1ccccc1)N(C)C(=O)c1ccccc1
Solution: 105

Problem: Please report growth for the following compound: C[n+]1c2ccccc2c(Nc2ccc(N3CCCCC3)cc2)c2[nH]c3ccccc3c21
Solution: -75.8

Problem: State its growth: N=c1ccn2c(n1)O[C@@H]1[C@@H](O)[C@H](CO)O[C@@H]12
Solution: 61.7

Problem: For the compound CC(C)c1nc(N(C)S(C)(=O)=O)nc(-c2ccc(F)cc2)c1/C=C/[C@@H](O)C[C@@H](O)CC(=O)O , give its reported growth.
Solution: 104

* * *

Test system: OVCAR-5 ovarian
Assay: NCI-60 one-dose screen, 48 h (100 = growth as untreated, 0 = no growth, -100 = all killed)
Conditions: 10 µM unless noted
The panel holds about 83,000 compounds, 20% with a hit somewhere; the sample as a whole holds those more often.
What growth was measured for each of the following?
# value in %; strip the unit string

Problem: Tell me growth reported for NNC(=O)NO
Solution: 110

Problem: Return growth for the following molecule: CCC1=C(c2ccc(OC)cc2)C(C)(C)Oc2c1ccc(O)c2CN1CCCC1
Solution: 68.3

Problem: Give the value of growth reported for the following: O=C1/C(=C/c2ccc([N+](=O)[O-])o2)Oc2ccc(Br)cc21
Solution: 105

Problem: Indicate the recorded growth value for this molecule: C/C(=N\N1CC(=O)NC1=O)c1ccc([N+](=O)[O-])o1
Solution: 111

Problem: Using the record for COc1cc(/C=C/C(=O)c2c(-c3ccc(Cl)cc3)nc3sc(C)nn23)cc(OC)c1OC , state its measured growth.
Solution: 106

Problem: Determine its reported growth: C=Cc1nn2c(CCC(=O)c3nc4ccccc4[nH]3)nnc2s1
Solution: 102

* * *

System: NCI-H322M lung
Experiment: NCI-60 one-dose screen, 48 h (100 = growth as untreated, 0 = no growth, -100 = all killed)
Conditions: 10 µM unless noted
This is part of a sample that, as a whole, favours compounds with a hit. Of some 83,000 tested, about 20% had one in any assay.
Exercise: for every item that follows, state its recorded growth.
Response body: numeric value in %, unit text excluded.

Problem: Quickly give me recorded growth for O=C(CN1CCCCC1)Sc1nnc2sc3ccccc3n12
Solution: 111

Problem: Provide growth value for the following molecule: CCSc1nnc2n(Cc3ccccc3)c(=O)c3c(C)c(C(N)=O)sc3n12
Solution: 102

Problem: Give growth for the following molecule: COc1ccc(-c2c(-c3cc(OC)c(OC)c(OC)c3)noc2N)cc1
Solution: 43.2

Problem: Provide only the value of recorded growth for O=C(Nc1ccncc1)C(=O)c1cn(S(=O)(=O)c2cccc(F)c2)c2ccccc12
Solution: 101

Problem: Could you please provide reported growth for OCc1nnn(-c2ccccc2)c1CO ? Thanks!
Solution: 118

Problem: Dear colleague, please send me the reported growth for CC(=O)c1nc2ccccc2n1CCn1cc(CC(N)C(=O)O)c2ccccc21 (stereo unspecified) when you can.
Solution: 93.6

Problem: # return recorded growth for input Cc1nn(-c2ccccc2)c2ncc3c(c12)C(=O)N(Cc1ccccc1)C3=O
Solution: 58.6

Problem: Given O=C(C(Br)Br)C(Br)C(Br)c1ccccc1 (stereo unspecified) , respond with its growth.
Solution: 109

Problem: Query growth for COc1cc(/C=C2\CCC/C(=C\c3ccc(OCC4CO4)c(OC)c3)C2=O)ccc1OCC1CO1 (stereo unspecified)
Solution: 85.1

Problem: Consider the molecule CCC(c1ccccc1)c1noc(CCN(CC)CC)n1 (stereo unspecified) . State its measured growth.
Solution: 109

Problem: Retrieve growth measured for Fc1ccc(-c2nnc(/C=C/c3cn(-c4ccccc4)nc3-c3ccccc3)o2)cc1 and print it.
Solution: 95.5
